stated conditions: 308.15 K; 100 kPa; Liquid; Vibrating tube method
outcome measure: mass density (kg/m3)
Entry rule: numbers only, all in kg/m3.

Some molecules with known mass density results, for comparison:
{"columns": ["molecule", "outcome measure", "obs value"],
 "data": [
  ["CC1=CCC(=O)O1", "mass density", 1077.77],
  ["O=C1CCCO1", "mass density", 1114.61],
  ["CCC1CCC(=O)O1 (stereo not given) [2(3H)-furanone, 5-ethyldihydro-]", "mass density", 1011.49],
  ["CC1CCC(=O)O1 (stereo not given)", "mass density", 1039.69]
]}

Now take the following molecule into account.
Prompt line: # get_value(readout='mass density', item= CC1CCCC(=O)O1 (stereo not given) [2H-pyran-2-one, tetrahydro-6-methyl-] )
Response line: 1036.48
